# target entity: binding of His-XIAP(BIR2)-avi fusion protein to GST-RIPK2 fusion protein (RIPK2/XIAP) (Homo sapiens, UniProt O43353)
# Construct: made in house; host or cells: baculovirus infected Sf9 cells
# Sequence (O43353 1-310 limits assumed): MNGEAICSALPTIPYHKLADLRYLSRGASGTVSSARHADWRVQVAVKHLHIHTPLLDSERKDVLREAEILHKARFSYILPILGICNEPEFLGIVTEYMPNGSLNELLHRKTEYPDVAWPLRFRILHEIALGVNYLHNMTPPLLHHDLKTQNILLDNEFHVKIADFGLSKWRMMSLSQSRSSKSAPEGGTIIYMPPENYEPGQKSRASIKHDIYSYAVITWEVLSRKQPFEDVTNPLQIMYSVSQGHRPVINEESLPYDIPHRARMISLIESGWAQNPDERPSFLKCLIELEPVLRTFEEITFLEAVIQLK
# procedure text: RIPK2-XIAP binding competition PPI assay (TR-FRET)
# experimental context: RIPK2/XIAP binding competition PPI assay; read-out: PPI IC50 bin
measured attribute: IC50

Past entries and their recorded results:
CC(C)(C)S(=O)(=O)c1cc2c(-c3cc(F)c(N)nc3F)cnn2cc1OCCO; 1 to 2.5 nM
CCCS(=O)(=O)Nc1cc(-c2cnc3cc(OC)c(C4(O)CCOCC4)cn23)cc(F)c1OC; 1 to 2.5 nM
COc1cc2ncc(-c3cc(F)c(N)nc3F)n2cc1S(=O)(=O)c1cn[nH]c1; 2.5 to 20 nM

# evaluate next
Please give the measured IC50 for this compound: COCCn1cc(-c2cc3ncc(-c4cc(F)c(N)nc4F)n3cc2S(=O)(=O)C(C)(C)C)cn1
2.5 to 20 nM

This collection of values is drawn from patent US20260137706A1.
